Reported half-life by item:
ASSAY_EXPLANATION: Half life in iv dosed rat
Type: ADME, organism-based
RUN_CONDITIONS: in vivo
Field: numeric (h). Do not append units.

Answered examples (3):
LINE_NOTATION	MEASURE	MEASUREMENT_UNITS	OBS_VALUE
C[C@]1(C(=O)O)CCC[C@@](C)(c2nc(-c3ccc(C(=O)Nc4cc(C(F)(F)F)ccn4)cc3)c3c(N)nccn23)C1	half-life	h	3
C[C@]1(C(=O)O)CC[C@@](C)(c2nc(-c3ccc(C(=O)Nc4cc(C(F)(F)F)ccn4)cc3)c3c(N)nccn32)CC1	half-life	h	5
C[C@]1(C(=O)O)CC[C@@](C)(c2nc(-c3ccc(C(=O)Nc4cc(C(F)(F)F)ccn4)cc3)c3c(N)nccn23)C1	half-life	h	2.4

Please examine the following record next.
Problem: So what does the record say about half-life for "CC(C)[C@@]1(C(=O)O)CC[C@@](C)(c2nc(-c3ccc(C(=O)Nc4cc(C(F)(F)F)ccn4)cc3)c3c(N)nccn23)C1" ?
Solution: 2

Hello, the source for this data is ChEMBL document CHEMBL3997842, in case you need it.
